assay-text: NCI Yeast Anticancer Drug Screen. Data for the sgs1 mgt1 strain (AID 161);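 also: 0% = growth of cultures given vehicle only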
experimental-conditions: S. cerevisiae sgs1 mgt1 strain, at 50.0 µM, hits give high values
Compounds without any hit were thinned out: in the full panel of roughly 79,000, 15% have a hit.
reported-property: growth inhibition (%)
Return type: number; implicit unit %.

In: // lookup growth inhibition for CC/C(=N\OC(=O)Nc1ccccc1)c1ccc(OC(=O)Nc2ccccc2)cc1
Out: 76.8

In: Same for O=C(CBr)Nc1ccc(Cc2ccc(NC(=O)CBr)cc2)cc1
Out: 98.2

In: Try the compound O=C(Nc1cc(Cl)ccc1Cl)Nc1ccc(Cl)cc1C(=O)c1ccccc1
Out: 88.9
